Hey, just so you know, these numbers are from paper PMC12167710.

Quick reference for log10 of EC50 among some binders
Biological target: T1, receptor-binding domain (RBD) of the wild-type SARS-CoV-2 spike protein (SARS-CoV-2, UniProt P0DTC2 333-527)
T1 construct: also called SARS-CoV-2 RBD
Experiment: ELISA
Details: both partners purified
On a log10 scale: recorded EC50, unit nM.

# annotated cases, reported log10 of EC50 shown
binder | log10 of EC50
mRBD19 (antibody, V domains shown) VH: QIQLVQSGPELKKPGETVKISCKASGYTFTEYPMHWVKQAPGKGFKWMGMIYTDTGEPTYAEEFKGRFAFSLETSASTAYLQINNLKNEDTATYFCVRGGPYYAMDYWGQGTSVTVSS VL: NIVLTQSPASLAVSLGQRATISCRASESVDSYGNSFMHWYQQKPGQPPKLLIYLASNLESGVPARFSGSGSRTDFTLTIDPVEADDAATYYCQQNNEDPWTFGGGTKLEIK | -0.91
mRBD15 (antibody, V domains shown) VH: QIQLVQSGPDLKKPGETVKISCKASGYTFTEYPMHWVKQAPGKGFQWMGMIYTDTGEPTYAEEFKGRFAFSLETSASTAYLQINNLKNEDTSTYFCVRAGPSYAMDYWGQGTSVTVSS VL: NIVLTQSPASLAVSLGQRATISCRASESVDSYGNSFMHWYQQKPGQPPKLLIYLASNVESGVPARFSGSGSRTDFTLTIDPVEADDAATYYCHQINEDPYTFGGGTKLEIK | -0.91
mRBD17 (antibody, V domains shown) VH: QIQLVQSGPELKKPGETVKISCKASGYTLTEYPMHWVKQAPGKGFKWMGMIYTDTGEPTYAEEFKGRFAFSLETSASTAYLQINNLKNEDTATYFCVRAGPSFAMDYWGQGTSVTVSS VL: DIQMTQTTSSLSASLGDRVTISCRASQDISNYLNWYQQKPDGTVKLLIYYTSRLHSGVPSRFSGSGSGTDYSLTISNLEQEDFATYFCQQGNTLPYTFGGGTKLEIK | 1.17
mRBD4 (antibody, V domains shown) VH: QVQLQQPGAELVMPGASVKLSCKASGYTFTSYWMHWVKQRPGQGLEWIGEIDPSDSYTNYNQKFKDKSTLTVDKSSSTAYMQLSSLTSEDSAVYYCARGGVYYYGSSHYFDYWGQGTTLTVSS VL: DIVMTQAAPSVPVTPGESVSISCRSSKSLLHSNGNTYLYWFLQRPGQSPQFLIYRMSNLASGVPDRFSGSGSGTAFTLRISRVEAEDVGVYYCMQHLEYPFTFGSGTKLEIK | -0.69

Let us move to another entry and its log10 of EC50.
IN: Suppose we examine the binder mRBD3 (antibody, V domains shown) VH: QVQLQQPGAELVMPGTSVKLSCKASGYIFTSYWMHWVKQRPGQGLEWIGEIDPSDNYTNYNQKFKGKSTLTVDKSSSTAYMQLSSLTSEDSAVYYCARGGLYYYGSSYDAMDYWGQGTSVTVSS VL: DIVMTQAAPSVPVTPGESVSISCRSSKSLLHSNGNTYLYWFLQRPGQSPQLLIYRMSNLASGVPDRFSGSGSGTAFTLRISRVEAEDVGAYYCMQHLEYPFTFGSGTKLEIK ; what log10 of EC50 value has been reported?
OUT: -0.99
